Reference for the values: PubChem BioAssay (EPA / NIEHS)

# experiment description: BSK_hDFCGF_Proliferation: Cell Proliferation Assessment in the BioMAP Diversity Plus: hDFCGF Assay (AID 2283059);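 further: curves fitted for both rise and fall of signal versus DMSO baseline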
# test settings: primary human foreskin fibroblasts
Active and inactive are the calls of the source. How the source made its calls: active means hit-call score of the fitted dose curve at least 0.9, where 1 is the maximum; inactive means score below 0.9.
Respond only with the outcome that fits, drawn from active, inactive

Request: I'd appreciate the recorded outcome for O=C(O)C1C2CCC(O2)C1C(=O)O (stereo unspecified) from this test.
Response: active

Request: So what was the verdict on OCCOCCO in this test?
Response: inactive

Request: Returns: the outcome recorded for c1ccc2c(c1)oc1ccccc12 in this assay.
Response: inactive

Request: Given Nc1ccc(N=Nc2ccccc2)cc1 , state the outcome it received in this test.
Response: active

Request: How did this test come out for CCCCC(CC)COC(=O)c1ccc(C(=O)OCC(CC)CCCC)c(C(=O)OCC(CC)CCCC)c1 (stereo unspecified) ?
Response: inactive

Request: Fill in: this test's call for CN(C)c1ccccc1 is ___
Response: inactive

Request: Please state the recorded outcome for this molecule: Oc1ccc2ccc3cccc4ccc1c2c34
Response: active

Request: # fetch the recorded call for [O-][Cl+]O here
Response: inactive

Request: Kindly provide the recorded test outcome for the following molecule: CN(C)[C@@H]1C(=O)C(C(N)=O)=C(O)[C@@]2(O)C(=O)C3=C(O)c4c(O)cccc4[C@@](C)(O)[C@H]3C[C@@H]12
Response: active

Request: Assay result, entry Cn1cc(-c2ccccc2)c(=O)c(-c2cccc(C(F)(F)F)c2)c1 — outcome?
Response: inactive

Request: How was CCCSC(=O)N(CCC)CCC classified in this test?
Response: inactive
